The measurements presented in this section are drawn from PubChem BioAssay (Tox21).

# measurement.notes: qHTS assay to test for compound auto fluorescence at 460 nm (blue) in HepG2 cell free culture (AID 720685)
# measurement.context: Cell-free culture medium, blue autofluorescence 405/460 nm; series mostly up to 46 µM
Activity calls are given as the source filed them. Calls follow the shape of the dose curve; as a rule, active = well fitted curve in the direction sought with a large enough effect in the repeat runs; inconclusive = weak or mixed curves; inactive = flat fitted curve, though single readings scatter.
experimental.endpoint: outcome

Known outcome results, listed for orientation:
# compound, experimental.endpoint, reading
rows = [
    ("CCOC(=O)c1cc(-c2ccccc2)nc2ccc(C)cc12", "outcome", "inactive"),
    ("CCCCCCCCCCCCCCCCCC[N+](C)(C)CCC[Si](OC)(OC)OC", "outcome", "inactive"),
    ("CCCCCC(O)/C=C/C=O (centres undefined)", "outcome", "inactive"),
    ("CO[C@H]1C[C@H](O[C@H]2[C@H](C)O[C@@H](O[C@@H]3/C(C)=C/C[C@@H]4C[C@@H](C[C@]5(C=C[C@H](C)[C@@H](C6CCCCC6)O5)O4)OC(=O)[C@@H]4C=C(C)[C@@H](O)[C@H]5OC/C(=C\\C=C\\[C@@H]3C)[C@]54O)C[C@@H]2OC)O[C@@H](C)[C@@H]1O", "outcome", "inactive"),
    ("Cc1c(Cl)cccc1Nc1ncccc1C(=O)O", "outcome", "inactive"),
    ("CCN(CC)Cc1cc(Nc2ccnc3cc(Cl)ccc23)ccc1O", "outcome", "inactive"),
    ("CCN1C(=O)NC(c2ccccc2)C1=O (centres undefined)", "outcome", "inactive"),
    ("CN(CC(=O)N1CCOCC1)Cc1c(Cl)cccc1NC(=O)c1ccccc1", "outcome", "inactive"),
]

Q: Entry C[N@+]12CCCC[C@@H]1CCC(=C(c1cccs1)c1cccs1)C2 needs its outcome filled in; supply it.
Result: inactive

Q: Entry CO/N=C(\C(=O)N[C@@H]1C(=O)N2C(C(=O)O)=C(CSc3nnnn3C)CS[C@H]12)c1csc(N)n1 needs its outcome filled in; supply it.
Result: inactive

Q: Entry CCOC(=O)COc1ccc2c(C)c(CCN(CC)CC)c(=O)oc2c1 needs its outcome filled in; supply it.
Result: inactive

Q: Entry COc1cc(C[C@@H]2NCCc3cc(O)c(O)cc32)cc(OC)c1OC needs its outcome filled in; supply it.
Result: inactive

Q: Entry CC1=C(/C=C/C(C)=C/C=C/C(C)=C/C(=O)Oc2c(C)c(C)c3c(c2C)CC[C@@](C)(CCC[C@H](C)CCC[C@H](C)CCCC(C)C)O3)C(C)(C)CCC1 needs its outcome filled in; supply it.
Result: inactive

Q: Entry NCCCNCCCCNC(=O)C(O)NC(=O)CCCCCCN=C(N)N (centres undefined) needs its outcome filled in; supply it.
Result: inactive

Q: Entry CCCCCCCCCCCCCCCCCCOP(=O)([O-])OC1CC[N+](C)(C)CC1 needs its outcome filled in; supply it.
Result: inactive

Q: Entry O=C1CSC2(CCN(CCCN3c4ccccc4Sc4ccc(Cl)cc43)CC2)N1 needs its outcome filled in; supply it.
Result: inactive

Q: Entry CCNC(=O)[C@@H]1CCCN1C(=O)[C@H](CCCN=C(N)N)NC(=O)[C@H](CC(C)C)NC(=O)[C@@H](Cc1c[nH]c2ccccc12)NC(=O)[C@H](Cc1ccc(O)cc1)NC(=O)[C@H](CO)NC(=O)[C@H](Cc1c[nH]c2ccccc12)NC(=O)[C@H](Cc1cnc[nH]1)NC(=O)[C@@H]1CCC(=O)N1 needs its outcome filled in; supply it.
Result: inactive

Q: Entry CC[C@@H](C(=O)[C@@H](C)[C@@H](O)[C@H](C)[C@@H]1O[C@@H]([C@@H](CC)C(=O)O)CC[C@@H]1C)[C@H]1O[C@]2(C=C[C@@H](O)[C@]3(CC[C@@](C)([C@H]4CC[C@](O)(CC)[C@H](C)O4)O3)O2)[C@H](C)C[C@@H]1C needs its outcome filled in; supply it.
Result: inactive

Q: Entry C=C1c2c(Cl)ccc(O)c2C(O)=C2C(=O)[C@]3(O)C(O)=C(C(N)=O)C(=O)[C@@H](N(C)C)[C@@H]3[C@@H](O)[C@H]12 needs its outcome filled in; supply it.
Result: inactive

Q: Entry CCSc1ccc2c(c1)N(CCCN1CCN(C)CC1)c1ccccc1S2 needs its outcome filled in; supply it.
Result: inactive

Q: Entry CCCCCCCCCCCCCCCCCCCCCCO needs its outcome filled in; supply it.
Result: inactive

Q: Entry CNC(C)[C@@H]1CC[C@@H](N)[C@@H](O[C@H]2[C@H](O)[C@@H](O[C@H]3OC[C@](C)(O)[C@H](NC)[C@H]3O)[C@H](N)C[C@@H]2N)O1 (some centres undefined) needs its outcome filled in; supply it.
Result: inactive

Q: Entry CS(=O)(=O)OCC(O)C(O)COS(C)(=O)=O (centres undefined) needs its outcome filled in; supply it.
Result: inactive
